# IC50 values compiled below
# testTarget: Estrogen Receptor beta (ER-β) LBD (Homo sapiens, UniProt Q92731)
# Sequence (Q92731 264-498 limits assumed): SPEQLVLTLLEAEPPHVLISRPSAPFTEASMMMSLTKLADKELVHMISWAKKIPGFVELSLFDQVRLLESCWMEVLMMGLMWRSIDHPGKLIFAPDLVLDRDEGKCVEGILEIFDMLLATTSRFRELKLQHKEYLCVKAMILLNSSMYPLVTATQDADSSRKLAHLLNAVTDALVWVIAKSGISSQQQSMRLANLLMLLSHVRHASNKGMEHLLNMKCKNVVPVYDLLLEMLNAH
# methodNotes: TR-FRET PGC1-α coactivator recruitment assay, ERβ LBD
# Assay type: biochemical
# testConditions: TR-FRET, Estradiol = EC80; ± SEM (n = 6); read-out: NR LBDs IC50 (μM) ER-β

q: Provide only the value of recorded IC50 for O=C(N/N=C/c1cccc(Cl)c1)c1cc2ccccc2cc1O [MDG491]
a: > 100 µM

q: Provide only the value of recorded IC50 for O=C(N/N=C/c1cc(Br)ccc1O)c1cc2ccccc2cc1O [MDG292]
a: > 100 µM

q: Provide only the value of recorded IC50 for CCCOc1ccc(/C=N/NC(=O)c2cc3c(ccc4ccccc43)o2)cc1 [MDG508]
a: 2.9 µM

q: Provide only the value of recorded IC50 for O=C(N/N=C/c1cc([N+](=O)[O-])ccc1O)c1cc2ccccc2cc1O [MDG614]
a: > 100 µM

q: Provide only the value of recorded IC50 for O=C(N/N=C/c1cc2ccccc2cc1O)c1cc2ccccc2cc1O [MDG483]
a: 12 µM

q: Provide only the value of recorded IC50 for O=C(N/N=C/c1cc(Cl)ccc1O)c1cc2ccccc2cc1O [MDG605]
a: 50 to 100 µM

q: Provide only the value of recorded IC50 for COc1cc(/C=N/NC(=O)c2cc3c(ccc4ccccc43)o2)cc(OC)c1O [MDG506]
a: > 100 µM

###

# testTarget: Progesterone Receptor (PR) LBD (Homo sapiens, UniProt P06401)
# Construct: purchased Invitrogen PV4666
# Sequence (P06401 679-913 limits assumed): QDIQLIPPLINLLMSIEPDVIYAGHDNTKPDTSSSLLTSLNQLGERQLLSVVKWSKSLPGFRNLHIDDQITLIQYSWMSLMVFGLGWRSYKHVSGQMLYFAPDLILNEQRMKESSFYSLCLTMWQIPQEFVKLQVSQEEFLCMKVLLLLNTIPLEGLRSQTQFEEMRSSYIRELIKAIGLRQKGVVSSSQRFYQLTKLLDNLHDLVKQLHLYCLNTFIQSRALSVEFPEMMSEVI
# methodNotes: TR-FRET SRC1-4 coactivator recruitment assay, PR LBD
# Type: biochemical
# testConditions: TR-FRET, Progesterone = EC80; ± SEM (n = 6); read-out: NR LBDs IC50 (μM) PR
# IC50 values compiled below
Provide the reading as a plain figure in µM.

Worked cases, IC50 given:
compoundStructureString | IC50, µM
COc1cc(/C=N/NC(=O)c2cc3c(ccc4ccccc43)o2)cc(OC)c1O | 27.7
O=C(N/N=C/c1cc2ccccc2cc1O)c1cc2ccccc2cc1O | 8.4
CCCOc1ccc(/C=N/NC(=O)c2cc3c(ccc4ccccc43)o2)cc1 | 5.9

Field: next compound
q: Provide only the value of recorded IC50 for O=C(N/N=C/c1cc(Br)ccc1O)c1cc2ccccc2cc1O
a: 22.5

###

# testTarget: Progesterone Receptor (PR) LBD (Homo sapiens)
# Construct: purchased Invitrogen PV4666
# methodNotes: TR-FRET SRC1-4 coactivator recruitment assay, PR LBD
# Assay type: biochemical
# testConditions: 100 μM to 45 nM, Progesterone = EC80
valueKind: effect on PR recruitment of fluorescent labelled SRC1-4

compoundStructureString | reported
O=C(N/N=C/c1cc(Br)ccc1O)c1cc2ccccc2cc1O | partially inhibit
COc1cc(/C=N/NC(=O)c2cc3c(ccc4ccccc43)o2)cc(OC)c1O | partially inhibit
CCCOc1ccc(/C=N/NC(=O)c2cc3c(ccc4ccccc43)o2)cc1 | partially inhibit
O=C(N/N=C/c1cc2ccccc2cc1O)c1cc2ccccc2cc1O | partially inhibit
